EXPERIMENT_SUMMARY: NCI Yeast Anticancer Drug Screen. Data for the cln2 rad14 strain (AID 165);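 note: 0% = growth equal to vehicle treated cultures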
STUDY_CONDITIONS: S. cerevisiae cln2 rad14 strain, at 50.0 µM, stronger effect = higher value
Compounds without any hit were thinned out: in the full panel of roughly 79,000, 15% have a hit. *1 amine or outer side, *2 acyl side, *3 side chain or, on linkers, in order; H or OH if unused. Where a SMILES comes first, the peptide text is derived from it. Bridges are numbered along the chain shown (N, C = ends). [ ]: non-standard residue; d: D form. The star is where a group is joined. Fmoc = O=C(OCC1c2ccccc2-c2ccccc21)*; X9 = O=C(C(CCCCNO[*:3])N[*:1])[*:2]
// growth inhibition lookup, one value per entry
Numbers only here, please. The scale is %.

Solved entries (count: 5):
COMPOUND | growth inhibition (%)
NC(=O)CNC(=O)C1CCCN1C(=O)C1CCCCNOC(=O)CCC(NC(=O)OCC2c3ccccc3-c3ccccc32)C(=O)NC(Cc2c[nH]c3ccccc23)C(=O)N1 (stereo not given) (Fmoc-EW[X9]PG-NH2; ester 1-3; configuration not given here) | 18.4
CC[N+](C)(CC)Cc1ccccc1[N+](=O)[O-] | 2.85
C=CCC(OC(=O)CC)c1ccc2c(c1)OCO2 (stereo not given) | 4.05
COC1c2ccccc2CC1(C)C (stereo not given) | -52.4
COc1ccccc1N=Nc1c(-c2cccs2)nn(C(=S)SC)c1C(F)(F)F | -3.9

// query May I ask what growth inhibition has been recorded for `Nc1nc(N)c(N=Nc2ccc(C(=O)O)c(O)c2)c(N)n1` ?
// result 12.8

// query `O=COCCCCCc1ccccc1` , same question.
// result 8.6

// query Try the compound `CN1C(=O)C(=O)OC1=C(c1ccccc1)c1ccccc1`
// result -30.9

// query How about this compound: `CCOP(=O)(OCC)c1nc(Cl)nc(Cl)c1SC(F)(F)F`
// result 13.2

// query Here is the next compound: `CC(C)(C)OC(=O)Cc1ccc2c(ccn2Cc2ccccc2)c1`
// result -22.1

---

This listing pairs compounds with measured growth inhibition.
EXPERIMENT_SUMMARY: NCI Yeast Anticancer Drug Screen. Data for the rad50 strain (AID 155);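 note: 0% = growth of vehicle-only cultures of the same strain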
STUDY_CONDITIONS: S. cerevisiae rad50 strain growth inhibition; at 50.0 µM; stronger effect = higher value
This is part of a sample that, as a whole, favours compounds with a hit. Of some 79,000 tested, about 15% had one in any assay.
Write the number in % without appending the unit.

COMPOUND | EXPERIMENTAL_VALUE
c1cc2c3c(cccc3c1)N=S=N2 | 25.4
CCN(CC)c1nc(N(C)C)nc(N(C)C)n1 | -9
Oc1[nH]c2ccccc2c1N=NC(=S)Nc1ccccc1Cl | -8.2
CCCC(CN1CCCCC1)C(OC(=O)c1ccc(N)cc1)C(F)(F)F (stereo not given) | -14.2
Cc1ccc(NC(Nc2ccc(C)c(Cl)c2)C(Cl)(Cl)Cl)cc1Cl | 9.65

// query So what does the record say about growth inhibition for `CCOC(=O)Nn1c(C)nnc1CC#N` ?
// result -3.05

// query Here is the next compound: CSc1nc2c(c(=O)[nH]1)N=C(c1ccccc1)CC(c1ccccc1)N2 (stereo not given)
// result 7.45

// query And for CCCCCCC(CC)C(N)=O (stereo not given) ?
// result 9.1

---

EXPERIMENT_SUMMARY: NCI Yeast Anticancer Drug Screen. Data for the bub3 strain (AID 167)
STUDY_CONDITIONS: S. cerevisiae bub3 mutant strain, at 50.0 µM
Compounds without any hit were thinned out: in the full panel of roughly 79,000, 15% have a hit. Activity calls are given as the source filed them. Cut-off read from the data, not from the text of the source: active = growth inhibition above about 70%; inactive = the rest.
Field 'call' accepts active, inactive

The following compounds have reported results that may help.
COMPOUND | LABEL_CLASS
Cc1ccc(C(=O)OC[C@H]2CC[C@@H](n3cc(N(C)C4CCCCC4)c(=O)[nH]c3=O)O2)cc1 | inactive
CC(C)C(=O)Nc1ccccc1 | inactive

// query Look up the recorded call for `c1ccc2c3c(ccc2c1)OCCOCCOc1ccc2ccccc2c1-3` in this test.
// result active

// query // query: Cc1ccc(Cl)c(NC(=O)C(=O)C(C(=O)c2ccncc2)C2OC(=O)c3ccccc32)c1 (stereo not given)
// result inactive

// query One more compound: `N#CCCCN1CCOCC1`
// result inactive

// query Record: `C/C(=C1/CCOC1=O)c1cccc(/C(C)=C2\CCOC2=O)c1`
// result inactive

// query How about this compound: `O=C(N/N=C\c1ccc([N+](=O)[O-])cc1)Nc1ccc2ccccc2c1`
// result inactive

// query Subsequent entry: `CCN(CCO)C(=O)C1(c2ccccc2)CCCCC1`
// result inactive

// query Note, next up: `Cc1ccc(N=CN(C)C)c(Cl)c1`
// result inactive

// query Same again, this time with `COc1cccc(N(CCO)C2CCCCC2)c1`
// result inactive

// query What do you have for COC(=O)C(=O)C(C(=O)C(=O)Nc1nc(=S)[nH][nH]1)c1nc2ccc([N+](=O)[O-])cc2[nH]c1=O (stereo not given) ?
// result inactive

// query Next up: `Oc1cccc(O)c1`
// result inactive

---

EXPERIMENT_SUMMARY: NCI Yeast Anticancer Drug Screen. Data for the mlh1 rad18 strain (AID 175)
STUDY_CONDITIONS: S. cerevisiae mlh1 rad18 strain growth inhibition; at 50.0 µM; stronger effect = higher value
Compounds without any hit were thinned out: in the full panel of roughly 79,000, 15% have a hit.
QUANTITY: growth inhibition (%)
The response must be a number in % with no trailing unit.

Worked cases, answers included:
MOLECULE | QUANTITY | EXPERIMENTAL_VALUE
COc1ccc(C(CN)c2ccc(N)cc2)cc1 (configuration not stated) | growth inhibition | -5.05
CC(=O)OCC(OC(C)=O)C(OC(C)=O)C(OC(C)=O)C(OC(C)=O)C(C=O)OC(C)=O (configuration not stated) | growth inhibition | -7.95
CCCCCCCCSC(SCCCCCCCC)=C1C(=O)N(c2ccccc2)N=C1C | growth inhibition | -13

// query Fill in: growth inhibition of `CCOc1ccccc1C(=O)Nc1cc(Cl)ccc1Cl` is ___
// result 2.85

// query Thanks! And `COc1ccc(/C=C/C(=O)c2ccc3c(c2)OCO3)cc1OC` ?
// result -23.5

---

Recorded growth inhibition values for a group of compounds are listed next.
EXPERIMENT_SUMMARY: NCI Yeast Anticancer Drug Screen. Data for the sgs1 mgt1 strain (AID 161);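 note: 0% = growth of cultures given vehicle only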
STUDY_CONDITIONS: S. cerevisiae sgs1 mgt1 strain, at 50.0 µM, stronger effect = higher value
Compounds without any hit were thinned out: in the full panel of roughly 79,000, 15% have a hit.
Report as a plain number; the unit % is understood.

Some compounds with known growth inhibition results, for comparison:
COMPOUND | QUANTITY | UNIT_ABBREV | EXPERIMENTAL_VALUE
COc1ccccc1-n1c(O)c(N=Nc2ccccc2)c(=O)n(-c2ccc(C)cc2)c1=S | growth inhibition | % | 66.8
NC(CSC(c1ccccc1)(c1ccccc1)c1ccc(C(=O)O)cc1)C(=O)O (stereo not drawn) | growth inhibition | % | 18.5
C=C(Cl)CSc1ncnc2nc[nH]c12 | growth inhibition | % | 18.2
CN=C(C#N)c1ccccc1 | growth inhibition | % | -2.6
O=CNc1ccc(-c2ccc(NC=O)cc2)cc1 | growth inhibition | % | 7.75
COC(=O)c1ccccc1C(=O)O | growth inhibition | % | 11.6
O=C1CC2CC1C1CC(Br)C(Br)C21 (stereo not drawn) | growth inhibition | % | -8.8
CCOC(=O)c1c(N)sc2c1C(C(=O)OCC)CCC2 (stereo not drawn) | growth inhibition | % | 3.95
CCOC(=O)CCC1CCCO1 (stereo not drawn) | growth inhibition | % | -19.9
CN(C)c1ccc(/C=N/NC(=O)c2ccccc2NC(=O)c2ccc(Cl)cc2)c(Cl)c1 | growth inhibition | % | 19.9

// query Reported growth inhibition for ClCC1OC1CCl (stereo not drawn) : what is it?
// result 1.1

// query Entry to check: `COC(=O)CCC(CCC(=O)O)([N+](=O)[O-])[N+](=O)[O-]`
// result -6.3

// query Please do the same for `Cc1cccc(C(N)=O)c1` as well.
// result 3.3

---

Reported growth inhibition values follow for various molecules
EXPERIMENT_SUMMARY: NCI Yeast Anticancer Drug Screen. Data for the sgs1 mgt1 strain (AID 161);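 note: 0% = growth of cultures given vehicle only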
STUDY_CONDITIONS: S. cerevisiae sgs1 mgt1 strain, at 50.0 µM, stronger effect = higher value
Compounds without any hit were thinned out: in the full panel of roughly 79,000, 15% have a hit.
Field: numeric (%). Do not append units.

// query Entry `CCN(CC)CCN1C(=O)c2cccc3cc(N)cc(c23)C1=O` has what growth inhibition?
// result -7.4

---

Recorded growth inhibition for the following compounds
EXPERIMENT_SUMMARY: NCI Yeast Anticancer Drug Screen. Data for the sgs1 mgt1 strain (AID 161);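 note: 0% = growth of cultures given vehicle only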
STUDY_CONDITIONS: S. cerevisiae sgs1 mgt1 strain, at 50.0 µM, stronger effect = higher value
About 79,000 compounds went through this panel and 15% of them were active in at least one assay; those are over-represented in the sample as a whole.
Reply numerically in %, unit not repeated.

COMPOUND | growth inhibition [%]
CC1C(OC(=O)CCl)CCC2C1(C)CCC1C2(C)CCC2(C)C3CC(C)(C)CCC3(C)CCC12C (stereo not given) | -1.85
CC(=O)N1CC(C)CC2OC3(CCC4C5CCC6CC(=O)CCC6(C)C5C(=O)C4C3C)C(C)C21 (stereo not given) | -9.15
COC(=O)CC(C)N(c1cccc(Cl)c1)S(=O)(=O)c1ccc(C)cc1 (stereo not given) | 76.3
O=C1C(O)=C(c2ccccc2)C(=O)N1Cc1ccccc1 | 4.55
COC(=O)c1cc(C)n(C)c(=O)c1CNS(=O)(=O)c1ccc(C)cc1 | 0.85

// query Form field: reported growth inhibition of COc1ccc(C(C)c2cc3c(cc2OC)OCO3)cc1OC (stereo not given)
// result 11.1

// query Now give it for `O=S(=O)(Nc1c(Cl)c(Cl)c(NS(=O)(=O)c2ccccc2)c(Cl)c1Cl)c1ccccc1` too.
// result 13.4

// query Same for `CCOC(=O)N1CCN(Cc2cc(=O)n3ccc(C)cc3n2)CC1`
// result 3.7

// query // repeat for CC1=NN2C(=O)C(C)SC2=NC(C)(C)C1 (stereo not given) and report
// result -3.15

// query Quick one: Cc1ccc(C(=O)OC2C3(C)CCC(C3)C2(C)C)cc1 (stereo not given)
// result 14.3
